Molecular target: apopain/CPP32 (Homo sapiens, UniProt P42574)
Construct: cleavage between Asp^28 -Ser^29 and Asp^175 -Ser^176; cleavage sites which yield the p17 and p12 subunits from the CPP32 proenzyme; endogenous in cells
Sequence (P42574 29-175 limits assumed): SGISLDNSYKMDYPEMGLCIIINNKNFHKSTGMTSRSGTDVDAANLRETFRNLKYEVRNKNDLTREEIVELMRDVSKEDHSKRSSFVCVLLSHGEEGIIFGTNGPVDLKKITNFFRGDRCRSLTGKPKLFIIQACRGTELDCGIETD
Sequence (P42574 176-277 limits assumed): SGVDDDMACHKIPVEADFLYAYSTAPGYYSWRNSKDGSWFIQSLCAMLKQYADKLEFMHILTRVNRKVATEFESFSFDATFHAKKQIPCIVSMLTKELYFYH
Test: continuous fluorometric assay with Ac-DEVD-AMC and purified apopain
measured.parameter: Ki (µM)
Enter your answer as a number in µM; do not include the unit.

Requested read-out: Ki. Entry: CC(=O)N[C@@H](Cc1ccc(O)cc1)C(=O)N[C@H](C(=O)N[C@@H](C)C(=O)N[C@H](C=O)CC(=O)O)C(C)C [Ac-YVAD-CHO]
12
